meta.source: ChEMBL document CHEMBL6078677

test: Hemolytic activity in Kunming mouse erythrocytes assessed as hemolysis at 2 times of MIC measured after 1 hrs by absorbance based assay relative to control; format: toxicity, cell-based, Erythrocyte; settings: read-out: Activity
measure name: hemolysis at 1 h, 2 times of MIC (%)
Give bare numbers, in %.

Below, 2 compounds whose answers are already recorded.
- CC1C/C(=C\c2ccc(-c3ccc(Cl)c(C(F)(F)F)c3)s2)c2nc3ccccc3c(C(=O)O)c2C1 (racemic): 0
- CCCCCCc1ccc(-c2ccc(/C=C3\CC(C)Cc4c3nc3ccc(OC)cc3c4C(=O)O)cn2)cc1 (racemic): 0.33

Next:
Ask: // lookup hemolysis at 1 h, 2 times of MIC for COc1ccc2nc3c(c(C(=O)O)c2c1)CC(C)C/C3=C\c1cccc(-c2ccc(Cl)c(C(F)(F)F)c2)c1 (racemic)
Result: 0

* * *

system: Enterococcus faecalis; assay: microbe, parasite or virus in culture; format: functional; conditions: SF23-1, time 20 hrs
Description: Antimicrobial activity against Enterococcus faecalis SF23-1 harboring erythromycin-resistance rRNA methylase B, tetracycline efflux protein L and chloramphenicol-florfenicol resistance methylase assessed as inhibition of visible growth of bacteria incubated for 20 hrs by broth microdilution method
measure name: MIC (µg/mL)
Numbers only, in µg/mL.

• CC1C/C(=C\c2ccc(-c3ccc(Cl)c(C(F)(F)F)c3)o2)c2nc3ccccc3c(C(=O)O)c2C1 (racemic) = 8
• CCCCCCc1ccc(-c2ccc(/C=C3\CC(C)Cc4c3nc3ccc(OC)cc3c4C(=O)O)cc2)cc1 (racemic) = 8
• CNC(C)[C@@H]1CC[C@@H](N)[C@@H](O[C@H]2[C@H](O)[C@@H](O[C@H]3OC[C@](C)(O)[C@H](NC)[C@H]3O)[C@H](N)C[C@@H]2N)O1.CN[C@@H]1[C@@H](O)[C@@H](O[C@@H]2[C@@H](O)[C@H](O[C@H]3O[C@H](C(C)N)CC[C@H]3N)[C@@H](N)C[C@H]2N)OC[C@]1(C)O.CN[C@@H]1[C@@H](O)[C@@H](O[C@@H]2[C@@H](O)[C@H](O[C@H]3O[C@H](CN)CC[C@H]3N)[C@@H](N)C[C@H]2N)OC[C@]1(C)O (stereo not given in full) = 8

# ---- query compound ----
Ask: Name the recorded MIC for CC1C/C(=C\c2cccc(-c3ccc(Cl)c(C(F)(F)F)c3)c2)c2nc3cc(N4CCN(C)CC4)ccc3c(C(=O)O)c2C1 (racemic) .
Result: 8

* * *

assay: Hemolytic activity in Kunming mouse erythrocytes assessed as hemolysis at 1 time of MIC measured after 1 hrs by absorbance based assay relative to control; type: toxicity, cell-based, Erythrocyte; details: read-out: Activity
measure name: hemolysis at 1 h, 1 time of MIC
Kindly report the value followed by its unit.

Reference set, count: 2
- CC1C/C(=C\c2ccc(-c3ccc(Cl)c(C(F)(F)F)c3)s2)c2nc3ccccc3c(C(=O)O)c2C1 (racemic): 0%
- CCCCCCc1ccc(-c2ccc(/C=C3\CC(C)Cc4c3nc3ccc(OC)cc3c4C(=O)O)cn2)cc1 (racemic): 0%

// next item, hemolysis at 1 h, 1 time of MIC requested
Ask: Report hemolysis at 1 h, 1 time of MIC for COc1ccc2nc3c(c(C(=O)O)c2c1)CC(C)C/C3=C\c1cccc(-c2ccc(Cl)c(C(F)(F)F)c2)c1 (racemic) please.
Result: 0%

* * *

Can you tell me MIC for the items I'm about to list?
test system: Enterococcus faecalis; test: Antimicrobial activity against Enterococcus faecalis JH2-2 assessed as inhibition of visible growth of bacteria incubated for 20 hrs by broth microdilution method; assay type: functional
Give bare numbers, in µg/mL.

Before answering, review these 3 worked examples.
- CC1(C)S[C@@H]2[C@H](NC(=O)[C@H](N)c3ccccc3)C(=O)N2[C@H]1C(=O)O [AMPICILLIN]: 16
- CC1C/C(=C\c2ccc(-c3ccc(Cl)c(C(F)(F)F)c3)s2)c2nc3ccccc3c(C(=O)O)c2C1 (racemic): 1
- CC(=O)NC[C@H]1CN(c2ccc(N3CCOCC3)c(F)c2)C(=O)O1 [LINEZOLID]: 0.5

Query compound follows.
Ask: Request - read-out MIC | tested on Enterococcus faecalis | compound CN[C@H](CC(C)C)C(=O)N[C@H]1C(=O)N[C@@H](CC(N)=O)C(=O)N[C@H]2C(=O)N[C@H]3C(=O)N[C@H](C(=O)N[C@H](C(=O)O)c4cc(O)cc(O)c4-c4cc3ccc4O)[C@H](O)c3ccc(c(Cl)c3)Oc3cc2cc(c3O[C@@H]2O[C@H](CO)[C@@H](O)[C@H](O)[C@H]2O[C@H]2C[C@](C)(N)[C@H](O)[C@H](C)O2)Oc2ccc(cc2Cl)[C@H]1O [VANCOMYCIN]
Result: 2
